The entries below pair compounds with IC50 values for SIK3 (Homo sapiens), as found in several publications.

Ask: Please tell me the measured IC50 for `COc1cc(-c2c3c(C#N)cc(-c4cnn(CCN(C)C)c4)cc3nn2C)cc(OC(F)F)c1C(=O)N[C@@H]1C[C@@H]1F` ; system: SIK3 (Homo sapiens).
Sequence (Q9Y2K2 whole entry): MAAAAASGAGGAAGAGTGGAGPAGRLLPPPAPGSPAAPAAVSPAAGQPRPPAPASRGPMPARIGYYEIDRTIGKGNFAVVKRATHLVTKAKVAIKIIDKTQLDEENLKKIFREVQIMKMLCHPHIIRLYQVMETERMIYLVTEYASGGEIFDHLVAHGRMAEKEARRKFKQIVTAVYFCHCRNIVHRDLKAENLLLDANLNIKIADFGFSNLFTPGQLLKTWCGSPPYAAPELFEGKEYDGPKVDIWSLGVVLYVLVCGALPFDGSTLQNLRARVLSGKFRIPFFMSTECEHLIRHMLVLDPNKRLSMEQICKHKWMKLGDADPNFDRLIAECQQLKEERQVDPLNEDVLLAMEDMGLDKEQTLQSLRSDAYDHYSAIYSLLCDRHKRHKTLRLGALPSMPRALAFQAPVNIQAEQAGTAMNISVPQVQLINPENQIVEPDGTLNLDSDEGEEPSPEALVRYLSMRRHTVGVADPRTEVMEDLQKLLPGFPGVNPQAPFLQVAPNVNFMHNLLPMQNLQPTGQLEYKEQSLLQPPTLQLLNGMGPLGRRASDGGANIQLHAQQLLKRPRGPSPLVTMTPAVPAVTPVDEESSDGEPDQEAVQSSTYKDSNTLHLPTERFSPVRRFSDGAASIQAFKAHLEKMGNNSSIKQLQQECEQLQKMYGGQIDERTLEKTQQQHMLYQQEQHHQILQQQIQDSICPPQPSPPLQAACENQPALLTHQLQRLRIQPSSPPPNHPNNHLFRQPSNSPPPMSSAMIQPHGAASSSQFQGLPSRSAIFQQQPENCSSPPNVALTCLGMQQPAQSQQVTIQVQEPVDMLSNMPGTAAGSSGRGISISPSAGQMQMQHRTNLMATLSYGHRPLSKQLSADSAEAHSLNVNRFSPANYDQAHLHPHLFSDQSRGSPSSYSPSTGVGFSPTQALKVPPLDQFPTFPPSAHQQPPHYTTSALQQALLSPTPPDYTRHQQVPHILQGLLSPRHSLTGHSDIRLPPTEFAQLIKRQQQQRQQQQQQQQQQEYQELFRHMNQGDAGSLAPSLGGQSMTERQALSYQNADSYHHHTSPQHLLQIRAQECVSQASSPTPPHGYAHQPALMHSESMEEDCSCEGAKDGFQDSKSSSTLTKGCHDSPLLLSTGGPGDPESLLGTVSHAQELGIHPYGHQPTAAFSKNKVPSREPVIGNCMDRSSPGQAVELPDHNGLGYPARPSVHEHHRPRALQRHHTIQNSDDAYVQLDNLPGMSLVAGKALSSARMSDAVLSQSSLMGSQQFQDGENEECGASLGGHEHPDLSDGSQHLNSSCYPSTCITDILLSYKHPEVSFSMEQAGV
Result: 8.7 nM

Ask: Please tell me the measured IC50 for `COCC(C)(C)Oc1ccn2c(-c3cc(OC)c(C(=O)NC4CC4)c(OC(F)F)c3)cnc2c1` ; system: SIK3 (Homo sapiens).
Result: 10 to 100 nM

Ask: Please tell me the measured IC50 for `COc1c(F)cc(F)cc1-c1c[nH]c2ncc(-n3cc(N4CCN(S(C)(=O)=O)CC4)cn3)cc12` ; system: SIK3 (Homo sapiens).
Result: < 100 nM

Ask: Please tell me the measured IC50 for `COc1cc(-c2cnc3cc(OCCc4cnn(C)c4)ccn23)cc(OC(F)F)c1C(=O)NC1CC1` ; system: SIK3 (Homo sapiens).
Result: 0.01 to 10 nM

Ask: Please tell me the measured IC50 for `COc1cc(-c2cnc3cc(OCCOCCO)ccn23)cc(OC(F)F)c1C(=O)NC1CC1` ; system: SIK3 (Homo sapiens).
Result: 0.01 to 10 nM

Ask: Please tell me the measured IC50 for `CCCS(=O)(=O)N1CCC(n2cc(-c3cnc4[nH]cc(-c5cc(F)cc(F)c5OC)c4c3)cn2)CC1` ; system: SIK3 (Homo sapiens).
Result: > 100 nM

Ask: Please tell me the measured IC50 for `COc1cc(-c2cnc3cc(OCC(C)(C)N(C)C)ccn23)cc(OC(F)F)c1C(=O)NC1CC1` ; system: SIK3 (Homo sapiens).
Result: 10 to 100 nM
